- TARGET OR SYSTEM: cynomolgus IL-36R on BaF/3 cells (cynomolgus)
- METHOD NOTES: cell-based or functional assay
ENDPOINT LABEL: IC90 pNFκB, trun-IL-36b, BaF/3 cynomolgus IL-36R cells (nM)

{"columns": ["BINDER", "RESULT UNITS", "LT GT EQ", "NUMBER"],
 "data": [
  ["Mouse 81B4 (antibody 81B4) (antibody, V domains shown) VH: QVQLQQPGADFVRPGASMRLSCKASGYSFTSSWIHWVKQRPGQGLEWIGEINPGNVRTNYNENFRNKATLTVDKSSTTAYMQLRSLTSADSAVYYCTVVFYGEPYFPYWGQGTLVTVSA VL: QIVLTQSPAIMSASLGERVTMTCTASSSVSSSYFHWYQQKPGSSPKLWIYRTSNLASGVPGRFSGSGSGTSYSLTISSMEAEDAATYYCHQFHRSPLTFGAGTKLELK", "nM", "=", 3.5],
  ["antibody 89A12 (antibody, V domains shown) VH: EVQLQQSGAELVRPGASVRLSCTASGFNIKDDYIHWVRQRPKQGLEWLGRIDPANGNTKYDPRFQDKATITADTSSNTAYLHLSSLTSEDTAVYYCAKSFPDNYYSYDDAFAYWGQGTLVTVSA VL: DIQMTQSPASQSASLGESVTFSCLASQTIGTWLGWYQQKPGKSPQLLIYRATSLADGVPSRFSGSGSGTNFSFKISSLQAEDLASYYCQQLYSGPYTFGGGTKLEIR", "nM", ">", 333],
  ["antibody 67E7 (antibody, V domains shown) VH: EVQLQQSGAEFVRPGASVKFSCTASGFNIKDDYIHWVRQRPEQGLEWVGRIDPANGNTKYAPKFQDKATITADTSSNTAYLQLSSLTSEDTAVYYCAKSFPNNYYSYDDAFAYWGQGTLVTVSA VL: DIQMTQSPASQSASLGESVTFTCLASQTIGTWLGWYQQKPGKSPQLLIYRSTTLADGVPSRFSGSGSGTKFSFKISSLQAADFASYYCQQLYSAPYTFGGGTKLEIR", "nM", ">", 333],
  ["Mouse 73C5 (antibody 73C5) (antibody, V domains shown) VH: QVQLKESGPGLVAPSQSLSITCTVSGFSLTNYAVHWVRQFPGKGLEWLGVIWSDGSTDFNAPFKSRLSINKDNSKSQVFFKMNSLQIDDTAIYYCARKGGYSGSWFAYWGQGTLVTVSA VL: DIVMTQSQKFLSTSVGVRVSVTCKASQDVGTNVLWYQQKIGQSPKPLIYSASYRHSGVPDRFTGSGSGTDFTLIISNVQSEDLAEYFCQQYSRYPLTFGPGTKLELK", "nM", "=", 1.6]
]}
